Source listed as paper PMC4125821.

- Target System: human S6K1 (RPS6KB1) protein, residues 1–421 with the T412E mutation (Homo sapiens, UniProt P23443, T412E)
- Construct: the human S6K1 (RPS6KB1) protein, residues 1–421 with the T412E mutation; purchased Carna Biosciences (Kobe, Japan)
- Sequence (P23443 1-421 T412E): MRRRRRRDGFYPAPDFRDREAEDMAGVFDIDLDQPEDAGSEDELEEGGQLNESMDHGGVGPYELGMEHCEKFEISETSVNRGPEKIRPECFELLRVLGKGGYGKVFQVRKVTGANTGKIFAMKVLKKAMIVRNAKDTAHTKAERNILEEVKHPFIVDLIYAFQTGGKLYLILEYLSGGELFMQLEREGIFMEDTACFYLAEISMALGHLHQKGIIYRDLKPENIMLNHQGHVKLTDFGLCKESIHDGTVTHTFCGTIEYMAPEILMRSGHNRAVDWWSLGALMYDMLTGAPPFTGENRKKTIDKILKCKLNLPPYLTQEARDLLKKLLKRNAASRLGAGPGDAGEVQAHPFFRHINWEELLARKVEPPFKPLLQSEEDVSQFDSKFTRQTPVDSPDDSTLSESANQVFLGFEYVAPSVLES
- Test Summary: Kinase mobility shift assay
- Format: biochemical
- Condition Context: S6K1 residues 1–421, T412E mutation; 2 nM enzyme; 30 min pre-incubation; ATP 0.5 mM; FL-Peptide 26 1.5 μM
Property Label: IC50 (nM)

Compound: O=C(Nc1cccc(C(F)(F)F)c1)C1CCN(c2ncnc3[nH]cnc23)CC1
IC50, nM: 206

1 = NS(=O)(=O)c1ccc(NC(=O)COC(=O)c2c3c(nc4ccccc24)CCCCC3)cc1
2 = c1ccc2[nH]c(C3CCN(c4ncnc5[nH]ncc45)CC3)nc2c1
3 = C1=C(c2c[nH]c3ccccc23)CCN(c2ncnc3[nH]ncc23)C1
4 = CC1CCc2nc3ccccc3c(C(=O)OC(C)C(=O)Nc3ccc(S(N)(=O)=O)cc3)c2C1 (centres unmarked)
In this exercise, place the 4 compounds in ascending sequence of their recorded IC50. Please list each label once, in the requested order.
3, 2, 1, 4
(3: 33 nM, 2: 81 nM, 1: 232 nM, 4: 567 nM)
